Entry source: the supplement of paper PMC8728848

# Lookup of reported glycan array binding signal (z-score) keyed by entry
- target-or-system: Fuc(a1-2)Gal(b1-4)GlcNAc(b1-2)Man
- assay-method-text: glycan array binding signal (z-score within array); higher = stronger binding
- conditions-used: glycan notation: IUPAC condensed, linker removed
Many of the other results were omitted from the sample, so the strongest signals are more common in it than they were.
Give a plain numeric answer without units written out.

Bench note: what glycan array binding signal (z-score) did Intelectin-1a (Mus musculus) (protein) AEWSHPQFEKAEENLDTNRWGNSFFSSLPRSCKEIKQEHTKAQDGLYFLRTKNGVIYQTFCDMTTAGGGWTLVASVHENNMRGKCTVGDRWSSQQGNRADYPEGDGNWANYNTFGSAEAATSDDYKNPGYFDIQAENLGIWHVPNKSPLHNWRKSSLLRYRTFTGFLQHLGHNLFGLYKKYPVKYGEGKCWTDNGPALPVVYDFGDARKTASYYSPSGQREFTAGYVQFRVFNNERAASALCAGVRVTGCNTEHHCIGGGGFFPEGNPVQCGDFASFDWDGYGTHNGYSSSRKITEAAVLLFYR show? 1.06

Bench note: what glycan array binding signal (z-score) did GNL (Galanthus nivalis) (protein) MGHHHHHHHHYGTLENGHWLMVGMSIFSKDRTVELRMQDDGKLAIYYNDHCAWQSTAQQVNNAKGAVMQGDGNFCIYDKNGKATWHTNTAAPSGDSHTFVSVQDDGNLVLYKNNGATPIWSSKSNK show? -0.231
